EXPERIMENTAL_TARGET: T1, RBFOX1 RRM RbFoxmut (Fox-RRM*) (Homo sapiens, UniProt Q9NWB1 109-208, R118D;E147R;N151S;E152T)
T1 sequence: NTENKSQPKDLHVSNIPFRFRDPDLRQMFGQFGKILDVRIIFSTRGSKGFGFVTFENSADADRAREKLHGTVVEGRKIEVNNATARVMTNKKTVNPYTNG
EXPERIMENTAL_DETAILS: EMSA; HiTS-Eq, 1 nM pool, 10 min; buffer printed only for the single-RNA assays: 10 mM Tris pH 7.5, 150 mM NaCl, 3.4 mM EDTA, 0.001% NP-40, 30 C
MEASUREMENT_CONTEXT: tags: His6 N-terminal (pET28a); label: 5' 32P
Whole data set: some 16,000 sequences, median “ka relative to ugcaugu” near 0.096, cut for the highest 2% near 0.35. For the sample, the highest values were picked, then their nearest neighbours and some sequences at random.

>  <BINDER>
CCAGAGG (DNA:RNA) RNA: GGGAGACCGGAAUUCAGAUUGUCCCCAGAGGUUAAAUCCCGUCGUAGCCACCA DNA 1: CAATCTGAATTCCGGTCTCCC DNA 2: TGGTGGCTACGACGGGATT

>  <binding signal>
0.0884 KA relative to UGCAUGU

$$$$
>  <BINDER>
CCGGCAC (DNA:RNA) RNA: GGGAGACCGGAAUUCAGAUUGUCCCCGGCACUUAAAUCCCGUCGUAGCCACCA DNA 1: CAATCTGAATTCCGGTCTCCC DNA 2: TGGTGGCTACGACGGGATT

>  <binding signal>
0.0571 KA relative to UGCAUGU

$$$$
>  <BINDER>
GCAGACU (DNA:RNA) RNA: GGGAGACCGGAAUUCAGAUUGUCCGCAGACUUUAAAUCCCGUCGUAGCCACCA DNA 1: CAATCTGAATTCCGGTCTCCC DNA 2: TGGTGGCTACGACGGGATT

>  <binding signal>
0.0704 KA relative to UGCAUGU

$$$$
>  <BINDER>
UUUUUAA (DNA:RNA) RNA: GGGAGACCGGAAUUCAGAUUGUCCUUUUUAAUUAAAUCCCGUCGUAGCCACCA DNA 1: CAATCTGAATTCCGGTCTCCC DNA 2: TGGTGGCTACGACGGGATT

>  <binding signal>
0.1 KA relative to UGCAUGU

$$$$
>  <BINDER>
CCCGAGU (DNA:RNA) RNA: GGGAGACCGGAAUUCAGAUUGUCCCCCGAGUUUAAAUCCCGUCGUAGCCACCA DNA 1: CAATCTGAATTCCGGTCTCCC DNA 2: TGGTGGCTACGACGGGATT

>  <binding signal>
0.094 KA relative to UGCAUGU

$$$$
>  <BINDER>
AAGCCCU (DNA:RNA) RNA: GGGAGACCGGAAUUCAGAUUGUCCAAGCCCUUUAAAUCCCGUCGUAGCCACCA DNA 1: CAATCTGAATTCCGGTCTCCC DNA 2: TGGTGGCTACGACGGGATT

>  <binding signal>
0.0868 KA relative to UGCAUGU

$$$$
>  <BINDER>
CGGCGAA (DNA:RNA) RNA: GGGAGACCGGAAUUCAGAUUGUCCCGGCGAAUUAAAUCCCGUCGUAGCCACCA DNA 1: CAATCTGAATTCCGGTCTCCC DNA 2: TGGTGGCTACGACGGGATT

>  <binding signal>
0.0938 KA relative to UGCAUGU

$$$$
>  <BINDER>
CCCGCGA (DNA:RNA) RNA: GGGAGACCGGAAUUCAGAUUGUCCCCCGCGAUUAAAUCCCGUCGUAGCCACCA DNA 1: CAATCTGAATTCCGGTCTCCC DNA 2: TGGTGGCTACGACGGGATT

>  <binding signal>
0.0823 KA relative to UGCAUGU

$$$$
>  <BINDER>
GCGAUGU (DNA:RNA) RNA: GGGAGACCGGAAUUCAGAUUGUCCGCGAUGUUUAAAUCCCGUCGUAGCCACCA DNA 1: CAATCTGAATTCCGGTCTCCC DNA 2: TGGTGGCTACGACGGGATT

>  <binding signal>
0.151 KA relative to UGCAUGU

$$$$
>  <BINDER>
CUCCUCC (DNA:RNA) RNA: GGGAGACCGGAAUUCAGAUUGUCCCUCCUCCUUAAAUCCCGUCGUAGCCACCA DNA 1: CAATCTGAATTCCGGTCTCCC DNA 2: TGGTGGCTACGACGGGATT

>  <binding signal>
0.0813 KA relative to UGCAUGU

$$$$
>  <BINDER>
CAGCAUU (DNA:RNA) RNA: GGGAGACCGGAAUUCAGAUUGUCCCAGCAUUUUAAAUCCCGUCGUAGCCACCA DNA 1: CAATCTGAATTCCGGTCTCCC DNA 2: TGGTGGCTACGACGGGATT

>  <binding signal>
0.107 KA relative to UGCAUGU

$$$$
>  <BINDER>
UGAUCUC (DNA:RNA) RNA: GGGAGACCGGAAUUCAGAUUGUCCUGAUCUCUUAAAUCCCGUCGUAGCCACCA DNA 1: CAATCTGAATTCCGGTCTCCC DNA 2: TGGTGGCTACGACGGGATT

>  <binding signal>
0.0775 KA relative to UGCAUGU

$$$$
>  <BINDER>
GGGUUUU (DNA:RNA) RNA: GGGAGACCGGAAUUCAGAUUGUCCGGGUUUUUUAAAUCCCGUCGUAGCCACCA DNA 1: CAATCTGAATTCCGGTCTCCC DNA 2: TGGTGGCTACGACGGGATT

>  <binding signal>
0.0749 KA relative to UGCAUGU

$$$$
>  <BINDER>
AAAGCCC (DNA:RNA) RNA: GGGAGACCGGAAUUCAGAUUGUCCAAAGCCCUUAAAUCCCGUCGUAGCCACCA DNA 1: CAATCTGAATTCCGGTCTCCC DNA 2: TGGTGGCTACGACGGGATT

>  <binding signal>
0.066 KA relative to UGCAUGU

$$$$
>  <BINDER>
GCUCUGU (DNA:RNA) RNA: GGGAGACCGGAAUUCAGAUUGUCCGCUCUGUUUAAAUCCCGUCGUAGCCACCA DNA 1: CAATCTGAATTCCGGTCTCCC DNA 2: TGGTGGCTACGACGGGATT

>  <binding signal>
0.102 KA relative to UGCAUGU

$$$$
>  <BINDER>
AGUGAAA (DNA:RNA) RNA: GGGAGACCGGAAUUCAGAUUGUCCAGUGAAAUUAAAUCCCGUCGUAGCCACCA DNA 1: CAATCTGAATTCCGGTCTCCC DNA 2: TGGTGGCTACGACGGGATT

>  <binding signal>
0.095 KA relative to UGCAUGU

$$$$
>  <BINDER>
CAAGGUA (DNA:RNA) RNA: GGGAGACCGGAAUUCAGAUUGUCCCAAGGUAUUAAAUCCCGUCGUAGCCACCA DNA 1: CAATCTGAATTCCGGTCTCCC DNA 2: TGGTGGCTACGACGGGATT

>  <binding signal>
0.124 KA relative to UGCAUGU

$$$$

Origin of the recorded values: paper PMC9911399
